Biological target: purified recombinantly expressed human SSAO (Homo sapiens)
Sequence (Q16853 1-763): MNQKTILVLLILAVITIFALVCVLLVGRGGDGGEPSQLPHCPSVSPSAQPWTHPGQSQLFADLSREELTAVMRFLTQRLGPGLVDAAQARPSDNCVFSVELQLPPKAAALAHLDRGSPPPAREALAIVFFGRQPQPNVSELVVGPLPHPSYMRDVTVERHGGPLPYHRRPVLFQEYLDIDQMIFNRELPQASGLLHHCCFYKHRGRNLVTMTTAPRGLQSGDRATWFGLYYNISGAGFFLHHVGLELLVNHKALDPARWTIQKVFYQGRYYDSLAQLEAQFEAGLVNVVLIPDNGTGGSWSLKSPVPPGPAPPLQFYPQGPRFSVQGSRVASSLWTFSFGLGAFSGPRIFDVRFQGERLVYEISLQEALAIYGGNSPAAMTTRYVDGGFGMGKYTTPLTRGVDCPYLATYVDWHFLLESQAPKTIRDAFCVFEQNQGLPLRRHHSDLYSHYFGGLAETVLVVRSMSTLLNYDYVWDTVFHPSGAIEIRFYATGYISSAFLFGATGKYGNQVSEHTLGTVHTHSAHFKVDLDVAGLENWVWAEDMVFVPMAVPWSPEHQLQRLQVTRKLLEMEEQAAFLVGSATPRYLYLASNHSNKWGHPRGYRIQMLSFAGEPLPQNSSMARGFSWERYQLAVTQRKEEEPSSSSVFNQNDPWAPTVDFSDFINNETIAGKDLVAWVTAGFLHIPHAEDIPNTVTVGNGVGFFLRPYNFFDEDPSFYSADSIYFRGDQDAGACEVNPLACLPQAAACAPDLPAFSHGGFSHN
Assay: SSAO enzyme inhibition assay (benzylamine substrate; hydrogen peroxide/HRP-coupled or 14C aldehyde detection)
Details: SSAO inhibitory activity, RT
assay metric: IC50

INSERT INTO results (smiles_str, assay_metric, reported_measurement) VALUES
  ('Cn1ccc(-c2nc3ccncc3n2-c2ccc(F)cc2)cc1=O', 'IC50', '0.2 to 1.2 µM'),
  ('C[C@@H]1CN(c2ncc(-c3nc4ccncc4n3-c3ccc(F)cc3)cn2)C[C@H](C)O1', 'IC50', '< 0.05 µM'),
  ('Cc1cc(NCC2CC2)ncc1-c1nc2ccncc2n1-c1ccc(F)cc1', 'IC50', '0.05 to 0.2 µM'),
  ('Cc1cc(NC2CCOCC2)ncc1-c1nc2ccncc2n1-c1ccc(F)cc1', 'IC50', '0.2 to 1.2 µM'),
  ('O=c1cc(-c2nc3ccncc3n2-c2ccc(Cl)cc2F)cc[nH]1', 'IC50', '0.05 to 0.2 µM'),
  ('Cc1cc(N2CCOCC2)ncc1-c1nc2ccncc2n1-c1ccc(F)cc1', 'IC50', '< 0.05 µM'),
  ('COCCCNc1ncc(-c2nc3ccncc3n2-c2ccc(C)cc2)cn1', 'IC50', '< 0.05 µM'),
  ('O=C1CN(c2ncc(-c3cc4ccncc4n3-c3ccc(Cl)cc3)cn2)CCN1', 'IC50', '< 0.05 µM'),
  ('O=c1cc(-c2cc3ccncc3n2-c2ccc(Cl)cc2)cn[nH]1', 'IC50', '0.05 to 0.2 µM'),
  ('Cn1nccc1-c1cc2ccncc2n1-c1ccc(Cl)cc1', 'IC50', '< 0.05 µM'),
  ('O=c1cc(-c2nc3ccncc3n2-c2ccc(Cl)cc2F)ccn1C1CC1', 'IC50', '0.05 to 0.2 µM');
